The measurements presented in this section are drawn from patent US20230035403A1.

Biological target: T1, HLA-A*03:01 (human, biotinylated heavy chain)
T1 construct: Conditional HLA class I complex whose UV-labile peptide is exchanged for the test peptide
Assay: UV-induced peptide exchange, HLA class I ELISA; Pos peptide = 100%;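 further: Streptavidin-captured biotinylated HLA class I complexes detected by HRP-conjugated anti-human B2M antibody, absorbance readout of intact complex amount after exchange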
Here, each record is paired with measured exchange rate with Pos peptide data.
Test readout: exchange rate with Pos peptide (%)

Binder: STRRAVRRM (9-mer fragment of neoantigen P16 (MSMB-NCOA4 fusion); synthetic peptide) [P16 9-mer STRRAVRRM]
Unit text: %
Experimental result: 6.1
--
Binder: GVLRRLLCR (9-mer fragment of neoantigen P37; synthetic peptide) [P37 9-mer GVLRRLLCR]
Unit text: %
Experimental result: 6.4
--
Binder: FFKRAAEGF (9-mer fragment of neoantigen P77 (AR-V3); synthetic peptide) [P77 9-mer FFKRAAEGF]
Unit text: %
Experimental result: 2.8
--
Binder: FPVGAEGTF (9-mer fragment of neoantigen P27; synthetic peptide) [P27 9-mer FPVGAEGTF]
Unit text: %
Experimental result: 4.5
--
Binder: NSKMALNSL (9-mer fragment of neoantigen P35; synthetic peptide) [P35 9-mer NSKMALNSL]
Unit text: %
Experimental result: 4.2
--
Binder: IQYSCMGLM (9-mer fragment of neoantigen P50; synthetic peptide) [P50 9-mer IQYSCMGLM]
Unit text: %
Experimental result: 5.5
--
Binder: NMVENGCYL (9-mer fragment of neoantigen P59; synthetic peptide) [P59 9-mer NMVENGCYL]
Unit text: %
Experimental result: 4.5
